experimental.readout: melting point

Query: I would be grateful if you could share the reported melting point for CCOC(=O)c1sc(S(C)(=O)=O)c2c1CCc1cnn(C)c1-2 .
Reply: 140 to 141 °C

Query: I would be grateful if you could share the reported melting point for CSC1=CC2=CN(O)NN2C(Cl)=N1 .
Reply: 256 to 257 °C

Query: I would be grateful if you could share the reported melting point for Cn1ncc(CC(=O)O)c1OCCCc1cn(-c2ccc(C(F)(F)F)cn2)nc1C1CCCCC1 .
Reply: 137 to 138 °C

Query: I would be grateful if you could share the reported melting point for CN1CCC(C2(O)c3ccccc3COc3cc(Cl)ccc32)CC1 (centres undefined) .
Reply: 199 to 200 °C

Query: I would be grateful if you could share the reported melting point for O=C(O)c1cc(Br)cc([N+](=O)[O-])c1Br .
Reply: 225 to 229 °C

Query: I would be grateful if you could share the reported melting point for O=C(CNC(=O)c1nc2ccc(Oc3cccc(C(F)(F)F)c3)cc2cc1OCc1ccccc1)OCc1ccccc1 .
Reply: 103 to 105 °C

Query: I would be grateful if you could share the reported melting point for CC1(C)OC(=S)Nc2ccc(-c3ccc(C#N)s3)cc21 .
Reply: 242 to 244 °C

Query: I would be grateful if you could share the reported melting point for O=C1C=C(Nc2cccc(F)c2)CCN1 .
Reply: 188 to 190 °C

Query: I would be grateful if you could share the reported melting point for CO/C=C(\Oc1cc(C#C[Si](C)(C)C)ccc1C)C(=O)OC .
Reply: 125 °C

----------
Consider the following molecules; for each one, report its melting point.

Query: I would be grateful if you could share the reported melting point for NC(=O)C1C2C=CC(C2)C1Nc1c(Cl)cnc2[nH]c(-c3ccc4c(c3)CCC3(CCNCC3)O4)nc12 (centres undefined) .
Reply: > 250 °C

Query: I would be grateful if you could share the reported melting point for CCc1c(Cl)nc(OCc2ccccc2)nc1OCc1ccccc1 .
Reply: 53 to 54 °C

Query: I would be grateful if you could share the reported melting point for O=C(CCl)N1CCOc2ccccc21 .
Reply: 107 to 108 °C

Query: I would be grateful if you could share the reported melting point for Cc1cc(CC(=O)O)sc1C(=O)c1ccccc1 .
Reply: 86 °C

Query: I would be grateful if you could share the reported melting point for Cc1oc(-c2ccccc2)nc1COc1ccc2oc(CCCc3nnn[nH]3)cc2c1 .
Reply: 136 to 137 °C

Query: I would be grateful if you could share the reported melting point for CCCCOCC(O)COc1ccc(-c2nc(-c3ccc(OCC(O)COCCCC)cc3O)nc(-c3c(C)cc(C)cc3C)n2)c(O)c1 (centres undefined) .
Reply: 125 to 131 °C

Query: I would be grateful if you could share the reported melting point for O=C(C1CCCC1)N1C=C2c3ccccc3C3CC2(C1)c1ccccc13 (centres undefined) .
Reply: 185 to 186 °C

Query: I would be grateful if you could share the reported melting point for O=S(=O)(Nc1cccc(CCOCc2csc(-c3ccc(C(F)(F)F)cc3)n2)c1)C(F)(F)F .
Reply: 117 to 119 °C

Query: I would be grateful if you could share the reported melting point for Cn1c2c(c3cccc(F)c31)C(=O)NCC2 .
Reply: 242 °C

Query: I would be grateful if you could share the reported melting point for COC(=O)C1=CC(=O)CCC1c1ccccc1OC (racemic) .
Reply: 76 °C

Query: I would be grateful if you could share the reported melting point for O=c1c(Cc2ccncc2)c(-c2ccc(Br)cc2)[nH]c2ccccc12 .
Reply: 232 to 234 °C

Query: I would be grateful if you could share the reported melting point for O=C(O)CP(=O)(O)C[C@H](Cc1ccccc1)NC(=O)c1ccccc1 .
Reply: 105 to 107 °C

Query: I would be grateful if you could share the reported melting point for Cn1nc(O[C@@H]2c3cc(C#N)ccc3OC(CF)(CF)[C@H]2O)ccc1=O (relative stereo) .
Reply: 215 to 217 °C

Query: I would be grateful if you could share the reported melting point for CCCCCCCCCCCCCCCCCCNC(=O)c1cc(OC(C)=O)cc(OC(C)=O)c1 .
Reply: 99 to 101 °C

Where do the numbers come from? From a melting point compilation (Tetko et al.; mined from patent text by program, amines drawn as free bases though some values may be those of a salt).
